target: T1, COVID-19 nucleocapsid protein (N-protein) (severe acute respiratory syndrome …, UniProt P0DTC9 1-419)
T1 construct: also called nucleocapsid protein (N-protein) of severe acute respiratory syndrome coronavirus 2 (SARS-CoV-2)
experimental_details: bio-layer interferometry (BLI)
Quick list: pKd per entry.
Keep in mind that pKd stands for -log10 of concentration in molar terms.

# binder AYTDCTTDFCNNRYVVNRCA (Ci, Cii and Ciii cysteines covalently bound to TBMT scaffold) [BCY18974] ; its pKd = 7.69

# binder ACLAPGQRCQWQRECA (Ci, Cii and Ciii cysteines covalently bound to TATA scaffold) [BCY17653] ; its pKd = 6.10

# binder KSQRCMTDFCNNRYVVNRCA (Ci, Cii and Ciii cysteines covalently bound to TBMT scaffold) [BCY18993] ; its pKd = 7.62

# binder ACLVDVCEITGVQIRCA (Ci, Cii and Ciii cysteines covalently bound to TATA scaffold) [BCY18171] ; its pKd = 5.25
